// data source = patent US6362180B1

The entries below come with measured melting point values attached.

# count of solved cases: 2
1. CCc1nc2c(-c3cc4ccoc4cc3C)ncnc2n1C(C1CC1)C1CC1 ... 139 to 141 °C
2. CCc1nc2c(-c3cc4c(c(Br)c3C)OCC4)ncnc2n1C(C1CC1)C1CC1 ... 179 to 180 °C

Briefly, melting point measured for CCc1nc2c(-c3ccc(OC)cc3Cl)ncnc2n1C(C1CC1)C1CC1 : 139 to 140 °C

----------
MEASURED_ATTRIBUTE: melting point

1. CCCCC(CC)n1c(CC)nc2c(-c3c(C)cc(C)cc3C)ncnc21 (stereo not drawn) ... 99 to 100 °C
2. CCc1nc2c(-c3cc4c(cc3C)OCC4)ncnc2n1C(C1CC1)C1CC1 ... 147 to 148 °C

Consider now this further compound.
For reference, reported melting point for CCc1nc2c(-c3cc4cc(Br)oc4cc3C)ncnc2n1C(C1CC1)C1CC1 stands at 177 to 178 °C
